target or test system: T1, hu-M-IL1RAP construct, positions S21-T367 (extracellular domain of the membrane form of human IL1RAP) (human, UniProt Q9NPH3 21-367)
T1 construct: Biotinylated when captured on the Biacore chip
T1 sequence: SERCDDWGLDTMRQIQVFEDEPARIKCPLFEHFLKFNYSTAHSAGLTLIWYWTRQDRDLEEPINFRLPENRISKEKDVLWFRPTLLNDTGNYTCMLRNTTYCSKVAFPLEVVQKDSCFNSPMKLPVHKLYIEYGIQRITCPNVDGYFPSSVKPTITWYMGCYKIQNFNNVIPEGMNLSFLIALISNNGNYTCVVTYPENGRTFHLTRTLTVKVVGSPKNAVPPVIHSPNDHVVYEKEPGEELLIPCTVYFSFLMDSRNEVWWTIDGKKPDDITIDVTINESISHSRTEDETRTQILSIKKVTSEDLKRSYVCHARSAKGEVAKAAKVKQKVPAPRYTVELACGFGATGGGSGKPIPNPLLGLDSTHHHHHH
procedure text: SPR, Fab analyte, 37 C
attribute measured: kon (M⁻¹ s⁻¹)
All answers are understood in M⁻¹ s⁻¹, so give the number only.

Solved entries (count: 2):
H2 Fab (VH R96D) (Fab, V domains shown, Fab with 8xHis tag) VH: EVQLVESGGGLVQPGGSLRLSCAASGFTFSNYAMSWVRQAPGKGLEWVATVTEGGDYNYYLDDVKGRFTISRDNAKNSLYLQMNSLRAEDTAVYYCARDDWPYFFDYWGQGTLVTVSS VL: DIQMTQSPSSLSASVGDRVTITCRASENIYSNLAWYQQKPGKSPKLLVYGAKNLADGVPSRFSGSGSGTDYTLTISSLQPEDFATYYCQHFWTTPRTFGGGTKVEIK; 6.5e+06
H12 Fab (VH M34V) (Fab, V domains shown, Fab with 8xHis tag) VH: EVQLVESGGGLVQPGGSLRLSCAASGFTFSNYAVSWVRQAPGKGLEWVATVTEGGDYNYYLDDVKGRFTISRDNAKNSLYLQMNSLRAEDTAVYYCARDRWPYFFDYWGQGTLVTVSS VL: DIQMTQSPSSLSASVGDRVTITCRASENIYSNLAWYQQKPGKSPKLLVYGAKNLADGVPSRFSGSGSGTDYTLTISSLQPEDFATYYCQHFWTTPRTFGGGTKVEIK; 5.7e+06

Next binder, please.
-- ask Param item = H9 Fab (VH G54V/R96A) (Fab, V domains shown, Fab with 8xHis tag) VH: EVQLVESGGGLVQPGGSLRLSCAASGFTFSNYAMSWVRQAPGKGLEWVATVTEGVDYNYYLDDVKGRFTISRDNAKNSLYLQMNSLRAEDTAVYYCARDAWPYFFDYWGQGTLVTVSS VL: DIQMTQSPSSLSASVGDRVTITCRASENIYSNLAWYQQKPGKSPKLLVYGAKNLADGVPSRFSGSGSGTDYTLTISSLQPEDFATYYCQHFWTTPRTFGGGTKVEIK ; retrieve measured kon.
-- reply 4.94e+06
